Measured normalized RNA/DNA level without ligand (log10) of individual entries
B1: library; a variant is named by its letters at N, in order (parent)
chain: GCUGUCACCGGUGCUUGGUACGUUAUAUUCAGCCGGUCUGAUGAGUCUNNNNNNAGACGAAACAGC

- Variants of: B1
- assayRemarks: normalized RNA/DNA level without ligand (relative to sTRSVctl = 100) (log10 (% of sTRSVctl)); HEK293T overexpressing SLC46A1; higher = less ribozyme self-cleavage, higher mRNA level
- conditions: without (6R,S)-folinic acid; ligand present: no

Here are 3 variants together with their reported answers.
CUCUAG: 2
CGUACA: 2.01
ACGGCU: 2.05

[ask] Entry CGUUCA needs its normalized RNA/DNA level without ligand (log10) filled in; supply it.
[reply] 2.02

[ask] Entry AUUGAC needs its normalized RNA/DNA level without ligand (log10) filled in; supply it.
[reply] 1.99

[ask] Entry AAGCCU needs its normalized RNA/DNA level without ligand (log10) filled in; supply it.
[reply] 2.06

[ask] Entry AUUUGA needs its normalized RNA/DNA level without ligand (log10) filled in; supply it.
[reply] 1.97

[ask] Entry GAAGGU needs its normalized RNA/DNA level without ligand (log10) filled in; supply it.
[reply] 1.97

[ask] Entry GAUCGC needs its normalized RNA/DNA level without ligand (log10) filled in; supply it.
[reply] 2

[ask] Entry AGGUAU needs its normalized RNA/DNA level without ligand (log10) filled in; supply it.
[reply] 2.01

[ask] Entry CUGCAC needs its normalized RNA/DNA level without ligand (log10) filled in; supply it.
[reply] 2.04

[ask] Entry AUCGGC needs its normalized RNA/DNA level without ligand (log10) filled in; supply it.
[reply] 2.05
